B1: minF1; the commonest letter at each place (parent)
chain: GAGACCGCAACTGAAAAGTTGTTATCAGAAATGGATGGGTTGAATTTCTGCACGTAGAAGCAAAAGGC

Variants of: B1
Test: fraction ligated after 30 min (ligated reads / total reads); higher = more ligase activity
Details: with F1*subA RNA substrate (template-directed ligation), 42 °C
I would appreciate it if you labelled entries yes (1) when fraction ligated is 0.03 or higher, otherwise no (0).

Below are worked cases with known answers.
>>> class_assignment("GAGACCGCAACTGAAAAGTTGTTATCAGAAAAGGCTGGGTTGAATTTCTGCACGTAGAAGCAAAAGGC [T32A A35C]")
"no (0)"
>>> class_assignment("GAGACCGCAACTGAAAAGTTGTCATCAGAAATGGAGGGGTTGAATTTCTGCACGTAGAAGCAAAAGGC [T23C T36G]")
"yes (1)"
>>> class_assignment("GAGACCGCAACTGAAAAGTTGTTATCAGAAAAGGATGGGTTTAATTTCTGCACGTAGAAGCAAAAGGC [T32A G42T]")
"no (0)"

Kindly determine if fraction ligated recorded for GAGACCGCAACTGAAAAGTTGTTATCAGATATGGATAGGTTGAATTTCTGCACGTAGAAGCAAAAGGC [A30T G37A] is above or exactly 0.03.
no (0)

Kindly determine if fraction ligated recorded for GAGACCGCAACTGAAAAGTTGTTATCAGAAATGGACGGGTTTAATTTCTGCACGTAGAAGCAAAAGGC [T36C G42T] is above or exactly 0.03.
no (0)

Kindly determine if fraction ligated recorded for GAGACCGCAACTGAAAAGTTGTTATCAGAAAAGGATGGGTTGAATTTCTGCACGTAGAAGCAAAAGGC [T32A] is above or exactly 0.03.
yes (1)

Kindly determine if fraction ligated recorded for GAGACCGCAACTGAAAAGTTGTAATCAGATATGGATGGGTTGAATTTCTGCACGTAGAAGCAAAAGGC [T23A A30T] is above or exactly 0.03.
yes (1)

Kindly determine if fraction ligated recorded for GAGACCGCAACTGAAAAGTTGTTATTAGAAATGGATGGGTTGACTTTCTGCACGTAGAAGCAAAAGGC [C26T A44C] is above or exactly 0.03.
yes (1)

Kindly determine if fraction ligated recorded for GAGACCGCAACTGAAAAGTTGTTATCGGAAATGGATGGGTTGGATTTCTGCACGTAGAAGCAAAAGGC [A27G A43G] is above or exactly 0.03.
yes (1)

Kindly determine if fraction ligated recorded for GAGACCGCAACTGAAAAGTTGTTCTCAGAAATCGATGGGTTGAATTTCTGCACGTAGAAGCAAAAGGC [A24C G33C] is above or exactly 0.03.
no (0)
